# experimentalTarget: EphA8(h) (Homo sapiens)
# Sequence (P29322 28-1005): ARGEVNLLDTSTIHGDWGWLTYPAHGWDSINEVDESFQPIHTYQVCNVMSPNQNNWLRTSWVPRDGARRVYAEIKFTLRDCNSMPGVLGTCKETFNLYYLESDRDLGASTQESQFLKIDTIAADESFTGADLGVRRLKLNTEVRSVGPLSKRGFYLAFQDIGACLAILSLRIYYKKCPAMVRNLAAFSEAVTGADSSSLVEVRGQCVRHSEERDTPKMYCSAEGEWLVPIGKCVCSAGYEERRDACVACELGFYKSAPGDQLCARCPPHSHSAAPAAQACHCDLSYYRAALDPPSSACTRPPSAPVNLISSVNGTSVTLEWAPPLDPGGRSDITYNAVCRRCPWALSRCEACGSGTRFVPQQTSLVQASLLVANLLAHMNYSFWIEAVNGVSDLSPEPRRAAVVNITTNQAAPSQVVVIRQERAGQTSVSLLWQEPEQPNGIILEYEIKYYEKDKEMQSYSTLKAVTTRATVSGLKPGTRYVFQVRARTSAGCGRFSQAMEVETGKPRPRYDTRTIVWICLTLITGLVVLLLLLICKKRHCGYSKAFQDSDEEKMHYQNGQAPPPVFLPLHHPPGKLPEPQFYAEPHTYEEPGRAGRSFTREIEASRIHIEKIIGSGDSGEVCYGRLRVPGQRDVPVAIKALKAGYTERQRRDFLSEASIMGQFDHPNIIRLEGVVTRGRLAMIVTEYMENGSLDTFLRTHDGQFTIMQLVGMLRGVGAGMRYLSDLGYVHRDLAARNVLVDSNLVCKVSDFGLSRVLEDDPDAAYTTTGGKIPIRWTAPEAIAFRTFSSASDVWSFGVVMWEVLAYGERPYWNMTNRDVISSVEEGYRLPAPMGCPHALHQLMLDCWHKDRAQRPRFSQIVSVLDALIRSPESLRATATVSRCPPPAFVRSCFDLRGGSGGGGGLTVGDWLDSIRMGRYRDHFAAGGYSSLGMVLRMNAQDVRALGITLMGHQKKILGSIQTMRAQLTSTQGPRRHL
# experimentSummary: Kinase Profiling Assay
# Assay type: biochemical
# experimentalContext: peptide 100 μM
No end group written: not given here.
Listed here: items and their measured % activity.
// note: answer is a bare numeric in %

The cases that follow already have their % activity on record.
QUERY: Give the reported value of % activity for this record: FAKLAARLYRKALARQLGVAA [MMI-0300]
RESULT: 93

QUERY: Give the reported value of % activity for this record: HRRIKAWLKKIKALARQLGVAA (Mammal) [MMI-0500]
RESULT: 337

QUERY: Give the reported value of % activity for this record: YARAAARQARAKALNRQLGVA (Mammal) [MMI-0200]
RESULT: 133

QUERY: Give the reported value of % activity for this record: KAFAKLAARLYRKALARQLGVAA [MMI-0400]
RESULT: 146

New cases:
QUERY: Give the reported value of % activity for this record: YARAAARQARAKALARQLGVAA [MMI-0100]
RESULT: 181
